- method_summary: Cytotoxicity against human HFF-1 cells assessed as cell growth inhibition
- Format: toxicity, cell-based
pIC50: −log10 of the molar value.
value_kind: pIC50

smiles_data	result
Cc1ncsc1-c1ccc([C@H](C)NC(=O)[C@@H]2C[C@@H](OC(=O)CCCCn3cc(CNC(=O)CC[C@H](NC(=O)c4ccc(NCc5cnc6nc(N)[nH]c(=O)c6n5)cc4)C(=O)O)nn3)CN2C(=O)[C@@H](NC(=O)COCCCOCCNC(=O)C[C@@H]2N=C(c3ccc(Cl)cc3)c3c(sc(C)c3C)-n3c(C)nnc32)C(C)(C)C)cc1	< 5.00
